Experimental protocol: self-splicing fitness, log relative to wild type (ln ratio); higher = more splicing; Tetrahymena group I intron in knt gene, E. coli kanamycin selection, DiMSum; sequences stand for … in CUCUCU…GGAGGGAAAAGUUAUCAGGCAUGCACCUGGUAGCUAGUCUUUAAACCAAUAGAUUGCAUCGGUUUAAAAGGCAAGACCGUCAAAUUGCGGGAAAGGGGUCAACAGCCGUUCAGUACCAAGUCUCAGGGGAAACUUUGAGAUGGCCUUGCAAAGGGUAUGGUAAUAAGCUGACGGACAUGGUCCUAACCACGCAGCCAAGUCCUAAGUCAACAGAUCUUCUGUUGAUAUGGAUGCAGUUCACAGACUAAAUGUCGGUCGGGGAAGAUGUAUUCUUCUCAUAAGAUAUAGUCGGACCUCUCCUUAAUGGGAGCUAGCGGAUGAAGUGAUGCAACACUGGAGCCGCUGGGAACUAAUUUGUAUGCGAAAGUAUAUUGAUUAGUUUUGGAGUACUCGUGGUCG;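 also: selection with 25 µg/mL kanamycin versus none on LB agar overnight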
Experimental conditions: 30 °C
Kindly return Yes if reported self-splicing fitness (ln) is no lower than -3; return No if it is lower.

Worked examples, 5 sequences total:
CCGUAGCAAUAUUACGAUUU | No
CCUAAGCAAUAUUACGACAU | No
AUCUAGCAAUAUUACGGGAA | Yes
CGGGAGCAAUAUUACGUUCA | No
UGAAAGCAAUAUUACGGAAU | No

Now consider the entry below.
Task item: Check the entry CUAUAGCAAUAUUACGAACG : does self-splicing fitness (ln) equal or exceed -3?
Reply: Yes

###

Experimental protocol: self-splicing fitness, log relative to wild type (ln ratio); higher = more splicing; Tetrahymena group I intron in knt gene, E. coli kanamycin selection, DiMSum; sequences stand for … in CUCUCU…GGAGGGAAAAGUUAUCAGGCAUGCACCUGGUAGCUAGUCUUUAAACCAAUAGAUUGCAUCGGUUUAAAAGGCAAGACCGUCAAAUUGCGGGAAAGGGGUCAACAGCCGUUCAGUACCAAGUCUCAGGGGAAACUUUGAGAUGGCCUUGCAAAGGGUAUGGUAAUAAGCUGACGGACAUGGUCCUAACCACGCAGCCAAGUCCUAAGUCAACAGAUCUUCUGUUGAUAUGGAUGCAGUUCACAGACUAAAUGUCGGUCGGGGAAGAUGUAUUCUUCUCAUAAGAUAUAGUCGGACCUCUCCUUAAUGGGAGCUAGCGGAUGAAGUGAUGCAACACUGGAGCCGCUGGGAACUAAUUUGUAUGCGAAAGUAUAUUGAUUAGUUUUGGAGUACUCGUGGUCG
Experimental conditions: 30 °C
Assign Y whenever self-splicing fitness (ln) does not fall below -3; assign N whenever it does.

GCAAAGCAAUAUUACGUCAC | N
UCUAAGCAAUAUUACGUUUU | N
CUAUAGCAAUAUUACGAAGG | Y
CGAAAGCAAUAUUACGGGUG | Y
CGUUAGCAAUAUUACGACUC | Y
CCCCAGCAAUAUUACGAAUC | N
UGCUAGCAAUAUUACGAGAG | Y
GGCAAGCAAUAUUACGAUGG | Y

Next, consider the following sequence.
Task item: For this sequence, is measured self-splicing fitness (ln) -3 or higher? GCUAAGCAAUAUUACGUCUC
Reply: Y

###

Experimental protocol: self-splicing fitness, log relative to wild type (ln ratio); higher = more splicing; Tetrahymena group I intron in knt gene, E. coli kanamycin selection, DiMSum; sequences stand for … in CUCUCU…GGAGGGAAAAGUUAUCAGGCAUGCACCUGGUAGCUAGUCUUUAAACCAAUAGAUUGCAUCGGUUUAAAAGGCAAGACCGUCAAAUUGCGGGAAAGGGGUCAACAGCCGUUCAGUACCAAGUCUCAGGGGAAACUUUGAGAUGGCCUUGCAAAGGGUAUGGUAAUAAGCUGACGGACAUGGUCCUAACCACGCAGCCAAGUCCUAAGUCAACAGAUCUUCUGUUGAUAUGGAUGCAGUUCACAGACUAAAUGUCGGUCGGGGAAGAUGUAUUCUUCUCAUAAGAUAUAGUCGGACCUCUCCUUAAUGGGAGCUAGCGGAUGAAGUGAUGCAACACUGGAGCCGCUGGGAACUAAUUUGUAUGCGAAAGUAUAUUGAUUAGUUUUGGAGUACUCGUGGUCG
Experimental conditions: 37 °C
self-splicing fitness (ln) for assorted sequences
Simply state the number, no unit and no words.

In the examples that follow, each entry is paired with its recorded self-splicing fitness (ln).
UUUAAGCAAUAUUACGCUGA | -0.978
AAAUAGCAAUAUUACGUUGC | -2.98
GAGUAGCAAUAUUACGUAUA | -1.52
CCCGAGCAAUAUUACGGAAG | -2.29
UGUUAGCAAUAUUACGGUAA | -0.0801
ACCUAGCAAUAUUACGAAAC | -2.31

Task item: What does the data say about its self-splicing fitness (ln)? Entry: GACGAGCAAUAUUACGCGGU
Reply: -1.83

Task item: Data request, read-out self-splicing fitness (ln), for CAUUAGCAAUAUUACGUGUC
Reply: -2.18

Task item: // query self-splicing fitness (ln) value for entry UCCUAGCAAUAUUACGUUAG
Reply: -1.92

###

Experimental protocol: self-splicing fitness, log relative to wild type (ln ratio); higher = more splicing; Tetrahymena group I intron in knt gene, E. coli kanamycin selection, DiMSum; sequences stand for … in CUCUCU…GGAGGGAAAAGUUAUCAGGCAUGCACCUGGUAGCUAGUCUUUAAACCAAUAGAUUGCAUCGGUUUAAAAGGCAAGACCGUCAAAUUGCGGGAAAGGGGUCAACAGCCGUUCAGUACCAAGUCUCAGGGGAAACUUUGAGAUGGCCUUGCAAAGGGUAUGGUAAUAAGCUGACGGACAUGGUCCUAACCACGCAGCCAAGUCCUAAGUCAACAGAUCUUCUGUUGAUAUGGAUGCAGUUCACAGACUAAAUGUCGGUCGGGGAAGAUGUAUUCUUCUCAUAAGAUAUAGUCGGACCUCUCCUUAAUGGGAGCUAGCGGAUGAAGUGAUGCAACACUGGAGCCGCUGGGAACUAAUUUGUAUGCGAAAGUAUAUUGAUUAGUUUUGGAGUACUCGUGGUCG
Experimental conditions: 30 °C
Catalogue of self-splicing fitness (ln) values
Form rule: numeric answer, no unit written next to it.

CUCUAGCAAUAUUACGGGGG | -3.07
ACACAGCAAUAUUACGGAAG | -3.07
AGGGAGCAAUAUUACGCAGC | -2.92
CACAAGCAAUAUUACGCGAC | -2.93

Task item: What self-splicing fitness (ln) value was documented for this sequence, AUGCAGCAAUAUUACGAUGG ?
Reply: -3.04

###

Experimental protocol: self-splicing fitness, log relative to wild type (ln ratio); higher = more splicing; Tetrahymena group I intron in knt gene, E. coli kanamycin selection, DiMSum; sequences stand for … in CUCUCU…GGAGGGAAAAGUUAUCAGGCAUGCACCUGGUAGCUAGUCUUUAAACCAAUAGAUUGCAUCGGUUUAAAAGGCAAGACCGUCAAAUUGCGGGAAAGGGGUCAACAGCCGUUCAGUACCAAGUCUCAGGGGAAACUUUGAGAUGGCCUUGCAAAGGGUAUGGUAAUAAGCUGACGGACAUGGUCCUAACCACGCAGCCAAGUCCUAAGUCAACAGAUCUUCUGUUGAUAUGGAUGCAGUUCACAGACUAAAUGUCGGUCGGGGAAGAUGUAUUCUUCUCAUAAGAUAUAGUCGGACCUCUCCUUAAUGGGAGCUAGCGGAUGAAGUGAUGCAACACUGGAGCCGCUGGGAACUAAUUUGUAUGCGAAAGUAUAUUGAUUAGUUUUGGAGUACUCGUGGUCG
Experimental conditions: 37 °C
Quantity kind: self-splicing fitness (ln)
Write the number on its own, no unit after it.

These recorded examples may help you get a feel for the data.
UAUUAGCAAUAUUACGCAAG | -1.8
UGCCAGCAAUAUUACGUGAG | -0.54
ACUUAGCAAUAUUACGAACU | -0.193

Task item: What value of self-splicing fitness (ln) has been recorded for this entry: CCCUAGCAAUAUUACGGGGC
Reply: -2.15

Task item: // self-splicing fitness (ln) lookup, key: UACUAGCAAUAUUACGAACC
Reply: -2.16

Task item: Form field: reported self-splicing fitness (ln) of GUGUAGCAAUAUUACGAAGA
Reply: -1.38

Task item: Given GGCCAGCAAUAUUACGGAGG , state its recorded self-splicing fitness (ln).
Reply: -1.14

Task item: Query: self-splicing fitness (ln); subject: UGCUAGCAAUAUUACGAAUA
Reply: -1.16

Task item: # query: self-splicing fitness (ln) of entry UUUCAGCAAUAUUACGUGAA
Reply: -0.17

Task item: Field request: self-splicing fitness (ln) | item: AAGGAGCAAUAUUACGGAGA
Reply: -2.35

Task item: May I ask what self-splicing fitness (ln) has been recorded for UCACAGCAAUAUUACGAAUG ?
Reply: -1.61
